Every entry's value here was drawn from patent US20200216495A1.

Target: Tau40 P301L protein (human)
Assay: cell-based or functional assay
Square brackets hold non-standard residues; d marks the D form. Ends that are not written are not given here. Tam = not defined here
For each entry below, report its IC50, Tau40 assay-Modified peptides (ThT) value.
Record the value in µM, omitting the unit from your answer.

Give its IC50, Tau40 assay-Modified peptides (ThT) value. Item: Tam-RRRRRRRRRRGGSGG[dW][dR][dI][dW][dI][dR][dY][dW] (reading uncertain; also: printed as Tam-RRRRRRRRRR-GGSGG-wriwiryw) [Tam-RRRRRRRRRR-GGSGG-wriwiryw]
4.94

Give its IC50, Tau40 assay-Modified peptides (ThT) value. Item: Tam-RRRRRRRRRRGGSGG[dL][dE][dL][dK][dI][dK][dF][dW] (reading uncertain; also: printed as Tam-RRRRRRRRRR-GGSGG-lelkikfw) [Tam-RRRRRRRRRR-GGSGG-lelkikfw]
8.71
